Ka (association constant) values by entry
Molecular target: T1, FZD5-Fc (Homo sapiens, UniProt Q13467)
T1 construct: The FZD5 portion of FZD5-Fc consists of the extracellular Ala27-Pro167 segment of FZD5; Fc (C); purchased R&D Systems 1617-FZ
T1 sequence (Q13467 27-167): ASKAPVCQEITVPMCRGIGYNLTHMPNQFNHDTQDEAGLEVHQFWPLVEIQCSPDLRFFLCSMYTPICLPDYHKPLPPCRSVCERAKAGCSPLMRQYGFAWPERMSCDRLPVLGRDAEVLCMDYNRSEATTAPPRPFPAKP
Experiment: Surface plasmon resonance analysis of IgG binding to Frizzled-Fc chimera
Details: SPR, FZD5-Fc
readout: Ka (association constant) (M⁻¹ s⁻¹)

{"molecule": "IgG-2929: anti-FZD5 IgG molecule incorporating antibody variable region Fv-2929 (antibody, V domains shown) VH: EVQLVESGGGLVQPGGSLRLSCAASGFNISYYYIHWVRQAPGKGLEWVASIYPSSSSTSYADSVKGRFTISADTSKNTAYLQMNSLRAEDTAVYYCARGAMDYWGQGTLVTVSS VL: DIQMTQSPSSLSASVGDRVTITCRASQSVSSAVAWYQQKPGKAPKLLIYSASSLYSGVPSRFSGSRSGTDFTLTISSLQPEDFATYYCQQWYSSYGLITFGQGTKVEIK", "readout": "Ka (association constant)", "result number": "2.77e+06"}
{"molecule": "IgG-2910: anti-FZD5 IgG molecule incorporating antibody variable region Fv-2910 (antibody, V domains shown) VH: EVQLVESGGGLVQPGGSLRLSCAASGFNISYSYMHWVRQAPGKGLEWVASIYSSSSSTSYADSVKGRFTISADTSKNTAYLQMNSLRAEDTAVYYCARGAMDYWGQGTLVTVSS VL: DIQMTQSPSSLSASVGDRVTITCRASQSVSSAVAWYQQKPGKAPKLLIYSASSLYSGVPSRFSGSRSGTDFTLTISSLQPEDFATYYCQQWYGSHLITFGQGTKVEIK", "readout": "Ka (association constant)", "result number": "1.52e+06"}
{"molecule": "IgG-2921: anti-FZD5 IgG molecule incorporating antibody variable region Fv-2921 (antibody, V domains shown) VH: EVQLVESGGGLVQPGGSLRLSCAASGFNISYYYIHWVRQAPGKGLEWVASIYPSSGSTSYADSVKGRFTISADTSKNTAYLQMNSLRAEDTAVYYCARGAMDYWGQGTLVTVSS VL: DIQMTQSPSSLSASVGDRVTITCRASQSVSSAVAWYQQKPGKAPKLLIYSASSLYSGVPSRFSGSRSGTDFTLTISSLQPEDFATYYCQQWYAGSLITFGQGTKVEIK", "readout": "Ka (association constant)", "result number": 922000}
{"molecule": "IgG-2916: anti-FZD5 IgG molecule incorporating antibody variable region Fv-2916 (antibody, V domains shown) VH: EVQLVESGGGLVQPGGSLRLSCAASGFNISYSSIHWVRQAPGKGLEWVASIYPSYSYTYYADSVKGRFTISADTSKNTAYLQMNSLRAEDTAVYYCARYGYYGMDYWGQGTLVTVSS VL: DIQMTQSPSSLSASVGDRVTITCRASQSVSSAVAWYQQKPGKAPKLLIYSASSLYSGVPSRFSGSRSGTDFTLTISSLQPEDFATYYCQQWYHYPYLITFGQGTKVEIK", "readout": "Ka (association constant)", "result number": "1.32e+06"}
{"molecule": "IgG-2920: anti-FZD5 IgG molecule incorporating antibody variable region Fv-2920 (antibody, V domains shown) VH: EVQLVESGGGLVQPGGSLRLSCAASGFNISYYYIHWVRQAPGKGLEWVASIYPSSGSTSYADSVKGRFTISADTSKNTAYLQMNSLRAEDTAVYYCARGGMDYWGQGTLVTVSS VL: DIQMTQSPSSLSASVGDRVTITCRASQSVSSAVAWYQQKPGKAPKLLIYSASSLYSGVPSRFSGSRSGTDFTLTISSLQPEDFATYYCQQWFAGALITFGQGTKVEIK", "readout": "Ka (association constant)", "result number": "3.59e+06"}
